Provenance of the data: paper PMC12221989

assay: in vitro; settings: human
reported_property: Half-life (min) n=1
Note: unit min is implicit; provide only the numeric part.

Study these solved cases before continuing.
- compound: "CC[C@@H]1NC(=O)[C@H]([C@H](O)[C@H](C)CC/C=C\\F)N(C)C(=O)[C@H](C(C)C)N(C)C(=O)[C@H](CC(C)C)N(C)C(=O)[C@H](CC(C)C)N(C)C(=O)[C@@H](C)NC(=O)[C@H](C)NC(=O)[C@H](CC(C)C)N(C)C(=O)[C@H](C(C)C)NC(=O)[C@H](CC(C)C)N(C)C(=O)CN(C)C1=O"
  measured_number: 29
- compound: "C/C=C/CC[C@@H](C)[C@@H](O)[C@H]1C(=O)N[C@@H](CC)C(=O)N(C)CC(=O)N(C)[C@@H](CC(C)C)C(=O)N[C@@H](C(C)C)C(=O)N(C)[C@@H](CC(C)C)C(=O)N[C@@H](C)C(=O)N[C@H](C)C(=O)N(C)[C@@H](CC(C)C)C(=O)N(C)[C@@H](CC(C)C)C(=O)N(C)[C@@H](C(C)C)C(=O)N1C"
  measured_number: 35

# next compound below
Which Half-life (min) n=1 is reported for this compound? `[2H]C([2H])([2H])/C=C/CC[C@@H](C)[C@@H](O)[C@H]1C(=O)N[C@@H](CC)C(=O)N(C)CC(=O)N(C)[C@@H](CC(C)C)C(=O)N[C@@H](C(C)C)C(=O)N(C)[C@@H](CC(C)C)C(=O)N[C@@H](C)C(=O)N[C@H](C)C(=O)N(C)[C@@H](CC(C)C)C(=O)N(C)[C@@H](CC(C)C)C(=O)N(C)[C@@H](C(C)C)C(=O)N1C`
32

====

# key: entry, value: Mean Clint (uL/min/mg protn)
assay: in vitro; details: human
Note: unit uL/min/mg protn is implicit; provide only the numeric part.

- structure_smiles: "C=CCCC[C@@H](C)[C@@H](O)[C@H]1C(=O)N[C@@H](CC)C(=O)N(C)CC(=O)N(C)[C@@H](CC(C)C)C(=O)N[C@@H](C(C)C)C(=O)N(C)[C@@H](CC(C)C)C(=O)N[C@@H](C)C(=O)N[C@H](C)C(=O)N(C)[C@@H](CC(C)C)C(=O)N(C)[C@@H](CC(C)C)C(=O)N(C)[C@@H](C(C)C)C(=O)N1C"
  measured_number: 67
- structure_smiles: "C/C=C/CCC[C@@H](C)[C@@H](O)[C@H]1C(=O)N[C@@H](CC)C(=O)N(C)CC(=O)N(C)[C@@H](CC(C)C)C(=O)N[C@@H](C(C)C)C(=O)N(C)[C@@H](CC(C)C)C(=O)N[C@@H](C)C(=O)N[C@H](C)C(=O)N(C)[C@@H](CC(C)C)C(=O)N(C)[C@@H](CC(C)C)C(=O)N(C)[C@@H](C(C)C)C(=O)N1C"
  measured_number: 79
- structure_smiles: "C/C=C/CC[C@@H](C)[C@@H](O)[C@H]1C(=O)N[C@@H](CC)C(=O)N(C)CC(=O)N(C)[C@@H](CC(C)C)C(=O)N[C@@H](C(C)C)C(=O)N(C)[C@@H](CC(C)C)C(=O)N[C@@H](C)C(=O)N[C@H](C)C(=O)N(C)[C@@H](CC(C)C)C(=O)N(C)[C@@H](CC(C)C)C(=O)N(C)[C@@H](C(C)C)C(=O)N1C"
  measured_number: 43
- structure_smiles: "CC[C@@H]1NC(=O)[C@H]([C@H](O)[C@H](C)CC/C=C\\F)N(C)C(=O)[C@H](C(C)C)N(C)C(=O)[C@H](CC(C)C)N(C)C(=O)[C@H](CC(C)C)N(C)C(=O)[C@@H](C)NC(=O)[C@H](C)NC(=O)[C@H](CC(C)C)N(C)C(=O)[C@H](C(C)C)NC(=O)[C@H](CC(C)C)N(C)C(=O)CN(C)C1=O"
  measured_number: 51

Which Mean Clint (uL/min/mg protn) is reported for this compound? `[2H]C([2H])([2H])/C=C/CC[C@@H](C)[C@@H](O)[C@H]1C(=O)N[C@@H](CC)C(=O)N(C)CC(=O)N(C)[C@@H](CC(C)C)C(=O)N[C@@H](C(C)C)C(=O)N(C)[C@@H](CC(C)C)C(=O)N[C@@H](C)C(=O)N[C@H](C)C(=O)N(C)[C@@H](CC(C)C)C(=O)N(C)[C@@H](CC(C)C)C(=O)N(C)[C@@H](C(C)C)C(=O)N1C`
44
